# System Tested: T1, TRAF2, Q12933
# T1 chain: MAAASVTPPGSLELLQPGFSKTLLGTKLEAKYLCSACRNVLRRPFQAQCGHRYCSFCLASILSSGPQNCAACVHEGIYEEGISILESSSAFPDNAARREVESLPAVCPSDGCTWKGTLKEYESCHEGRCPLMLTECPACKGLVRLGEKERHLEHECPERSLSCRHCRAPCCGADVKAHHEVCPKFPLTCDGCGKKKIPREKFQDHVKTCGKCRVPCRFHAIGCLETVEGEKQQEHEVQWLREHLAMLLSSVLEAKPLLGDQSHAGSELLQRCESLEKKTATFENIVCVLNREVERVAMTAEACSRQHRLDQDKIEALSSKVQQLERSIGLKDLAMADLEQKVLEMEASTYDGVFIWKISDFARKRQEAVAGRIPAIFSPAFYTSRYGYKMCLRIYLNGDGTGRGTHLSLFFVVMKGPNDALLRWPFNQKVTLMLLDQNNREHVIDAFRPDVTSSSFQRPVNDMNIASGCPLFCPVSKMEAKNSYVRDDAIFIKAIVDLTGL
# Method Description: median log2 fold change of GCK-ALFA target abundance (FLAG IP / Myc IP barcode read proportion) (log2 ratio); each designed protein is fused to an ALFA-tag nanobody in HEK293 cells to bring the named protein to FLAG-tagged glucokinase (GCK); Myc marks an untargeted standard; higher = target protein stabilised (more abundant)
# Test Parameters: target protein: 3xFLAG-MCP-GCK-ALFA reporter; HEK293 landing pad (RPLP)
Over roughly 1,800 sequences, “median log2 fold change of GCK-ALFA target abundance (FLAG IP / Myc IP barcode read proportion)” has its median near 0.14; the lowest 2% begin near -0.84. The entries come from a sample that favours the lowest values as a whole.

Binder	median log2 fold change
traf2_out_6_166_2459 (protein) ESETLKEIREIIKELSKYSTEIIVKAFDEVAKKVDEESARILRQLKSAVEQAEKLGLDVETALTATVLGLITLGVPEETLLKLLKEVLKEAKKIAEEKEK	0.077
traf2_out_11_169_804 (protein) EEAEKNREINDFALELNDEAVARLEEAALALAREAGLDPEEVRAIFEAHKGKSLSAVAAALIRHFRERGAEAAAEAVLALYEELKEEINKKMTEKIKELE	0.243
traf2_out_18_167_1822 (protein) SAETEAEIERLTDELVRVSEIRRLALLALEALRTDPAAADAARDALIAALNEVPEFRPDAAALRAAPRAELPALLERIAERAQRRAQELYERREELKKKQ	0.336
traf2_out_20_38_2001 (protein) SAEEEEEEKLKKIIDVANEAYDEASKEIEELKAAGKSVEEIAEIVRAKVRELLTAAGLEEELEELLADIDRALSSPNALRLFARIRARAVALVKQKELNE	-1.24
traf2_out_17_162_1641 (protein) SAAEELRKRLLEELERLEKELKELEEKSKKIDEYTKEELSDLIVEASEARRRARELIEEVDRNRSLLDPEEYEELKKRLEEIAERLNRIAQKFYDKYLEL	0.177
traf2_out_20_38_2040 (protein) EEEKEEEERLLEIAKKATEVADKTEAWVEEKLAAGVSPEEIIAETKKLITEKLAAIGKEEEAKELIERLDTLAAAGEVRRGVVLVMARAAAIVYQKEQEE	0.281
traf2_out_17_178_1662 (protein) SKEEERKKISELTDELIDLAEDAAERMLELAEKEGDVSEEELEELREARRRGSATDVLALGERLIPKLKNSEELGALLEEFKARYRELSKEIAEAYERYE	0.161
traf2_out_17_162_1640 (protein) SPVEEFKERVEKELKELEKRVEELEEKSKKIDEYSKEELSDLIVEASEVKRRARELKQEVLAAKDLIPEEERARILKRLEEIIERAQRIAQKFYDKYLSL	0.0147
traf2_out_18_117_1787 (protein) MEREEIIERLKEIAEETGRAASELGKLVLEKWEELTPEEKSEAFDVLADLSEVRREAQLLIIEIEEKNLPIEEAKKRLEELEKRAEEALKRAEEKIKRIK	0.101
